Answer each item with its documented %Inh.
- System: WNK1;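 note: KINOMEscan kinase panel screen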
- COND: concentration: 1 μM, replicates: in singlicate; n = 1
Expressed in %, but write only the number.

Asked: Fill in: %Inh on WNK1, entry O=S(=O)(c1ccc(-c2ccnc3[nH]ccc23)cc1)N1CCCC1 [GSK846226]
Given back: 5

Asked: Fill in: %Inh on WNK1, entry Cc1cc(N2Cc3ccccc3C2)nc(Nc2ccc(S(=O)(=O)N3CCOCC3)cc2)n1.Cl [GSK1669917]
Given back: 0

Asked: Fill in: %Inh on WNK1, entry Cc1cccc(-c2nc(Nc3ccc4[nH]ncc4c3)c3ccccc3n2)n1 [GW857175]
Given back: 0

Asked: Fill in: %Inh on WNK1, entry O=C1NC(=O)C(N2CCc3ccccc32)=C1c1ccccc1Cl [SB-373598]
Given back: 0

Asked: Fill in: %Inh on WNK1, entry Cc1c(Cn2ccn3c(=O)cc(N4CCOCC4)nc23)cccc1C(F)(F)F [GSK2289044]
Given back: 0

Provenance of the data: paper PMC5540273
